molecular target: PKK in kaolin activated human platelet poor plasma (Homo sapiens, UniProt P03952); construct: Platelet poor plasma (PPP) obtained from human wholeblood; assay: Inhibition of PKK in kaolin activated human PPP; conditions: 25-750 μg/mL kaolin, global fit, text b200 calls the values IC90;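 note: readout is the rate of fluorogenic substrate cleavage in rfu per min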
Sequence (P03952 391-638 limits assumed): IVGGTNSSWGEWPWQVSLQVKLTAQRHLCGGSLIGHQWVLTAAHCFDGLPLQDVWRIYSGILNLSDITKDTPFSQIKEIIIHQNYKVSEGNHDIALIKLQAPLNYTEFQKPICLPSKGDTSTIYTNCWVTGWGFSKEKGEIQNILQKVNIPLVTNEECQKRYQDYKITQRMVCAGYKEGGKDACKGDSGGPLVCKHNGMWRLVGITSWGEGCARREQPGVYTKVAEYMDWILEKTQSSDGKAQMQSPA
Sequence (P03952 20-390 limits assumed): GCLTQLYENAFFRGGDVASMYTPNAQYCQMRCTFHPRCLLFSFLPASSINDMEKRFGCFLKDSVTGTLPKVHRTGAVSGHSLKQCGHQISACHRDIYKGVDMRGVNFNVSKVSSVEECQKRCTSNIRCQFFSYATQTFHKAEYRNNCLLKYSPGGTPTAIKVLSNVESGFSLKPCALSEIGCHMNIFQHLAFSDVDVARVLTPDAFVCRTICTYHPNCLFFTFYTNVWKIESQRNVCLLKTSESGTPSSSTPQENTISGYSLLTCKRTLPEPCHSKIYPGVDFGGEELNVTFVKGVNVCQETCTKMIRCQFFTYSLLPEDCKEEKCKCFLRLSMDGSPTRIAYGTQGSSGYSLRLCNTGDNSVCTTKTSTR
Checkbox rule: IC50 lower than 400 nM = condition met; IC50 not lower than 400 nM = condition not met.

q: Does the reported IC50 of Cn1cnc2c1CC[C@H]2NC(=O)c1cnn(Cc2ccc(N3CC4(CC4)C3)nc2C(F)F)c1 [Example 52] stay below 400 nM?
a: condition met

Consider the additional molecule presented here.
q: Bench note: check whether Cn1cnc2c1CC[C@H]2NC(=O)c1cnn(Cc2ccc(N3CC4CC4C3)nc2C2CC2)c1 (stereo partly shown) [Example 117] shows IC50 below 400 nM
a: condition not met

Values from patent US12479827B2
